Cited source: ChEMBL document CHEMBL1201862

# Tested on: HCT-15
measured-attribute: GI50

INPUT: Which GI50 value is on record for CC(=O)NCCc1c[nH]c2ccc(Cl)cc12 ?
OUTPUT: > 100 µM

INPUT: Which GI50 value is on record for COc1cc2c(cc1OC)C(=O)/C(=C/c1ccc(Cl)cc1)CC2 ?
OUTPUT: > 10 µM

INPUT: Which GI50 value is on record for Cc1c(Cc2ccccc2)c(Cc2ccccc2)c(C)[s+]1[O-] ?
OUTPUT: 31.3 µM

INPUT: Which GI50 value is on record for CC(=O)Oc1c2c(c(CC=C(C)C)c3c1C(=O)C1=C[C@@H]4CC5C(C)(C)OC(C/C=C(/C)C(=O)O)(C4=O)[C@@]15O3)OC(C)(CCC=C(C)C)C=C2 (stereo not given in full) ?
OUTPUT: 0.244 µM

INPUT: Which GI50 value is on record for O=C(Cc1csc(N/N=C2\C(=O)Nc3ccccc32)n1)Nc1ccccc1 ?
OUTPUT: 38.5 µM

INPUT: Which GI50 value is on record for CCNc1ncnc2sc(SCc3ccccc3)nc12 ?
OUTPUT: > 100 µM

INPUT: Which GI50 value is on record for COc1ccc(-c2cc(=O)c3ccc(O)cc3o2)cc1OC ?
OUTPUT: 32.4 µM

INPUT: Which GI50 value is on record for COC(=O)C(=O)C(C(=O)OC)C(=O)C(=O)Nc1cc(Cl)c(C)cc1S(=O)(=O)O (stereo not given) ?
OUTPUT: > 100 µM

INPUT: Which GI50 value is on record for CCN1CCN=c2c3cc(OC)ccc3n3cnc4ccc1c2c43 ?
OUTPUT: 0.177 µM

INPUT: Which GI50 value is on record for O=C1CCC2CCc3cccc4oc1c2c34 (stereo not given) ?
OUTPUT: > 100 µM

INPUT: Which GI50 value is on record for O=C1CCSc2c(cnc3ccccc23)N1 ?
OUTPUT: > 100 µM

INPUT: Which GI50 value is on record for O=S(=O)(SCc1ccccc1)C(c1ccccc1)c1ccccc1 ?
OUTPUT: 30.5 µM

INPUT: Which GI50 value is on record for O=C(CNC(=O)OCc1ccccc1)NCCCCC(NC(=O)OCc1ccccc1)C(=O)O (stereo not given) ?
OUTPUT: > 100 µM

INPUT: Which GI50 value is on record for OCC1OC(O)C(/N=C\c2ccc3c(c2)OCO3)C(O)C1O (stereo not given) ?
OUTPUT: > 100 µM

INPUT: Which GI50 value is on record for O=S(=O)(c1ccccc1)c1ccc(-c2nc(-c3ccc4c(c3)Sc3ccccc3S4)cs2)cc1 ?
OUTPUT: > 100 µM

INPUT: Which GI50 value is on record for COc1ccc(N2C(=O)CSC2c2c[nH]c3ccccc23)cc1 (stereo not given) ?
OUTPUT: 70.3 µM

INPUT: Which GI50 value is on record for CSc1ccc2c(cc1=O)[C@@H](NC(=O)c1ccc(N)cc1)CCc1cc(O)c(O)c(O)c1-2 ?
OUTPUT: 11.2 µM

INPUT: Which GI50 value is on record for OCCCCCNc1ccnc2cc(Cl)ccc12 ?
OUTPUT: > 100 µM

INPUT: Which GI50 value is on record for Cc1ccc(CS(=O)(=O)C/N=C2\Sc3ccccc3N\C2=C/C(=O)c2ccc(Cl)cc2)cc1 ?
OUTPUT: > 10 µM

INPUT: Which GI50 value is on record for CCOC(=O)c1c[nH]c2c(Sc3ccccc3)nccc2c1=O ?
OUTPUT: > 100 µM

INPUT: Which GI50 value is on record for COc1ccc(/C=C/CN(C)CCc2ccccc2)cc1OC ?
OUTPUT: > 100 µM

INPUT: Which GI50 value is on record for N#CC1=C(N)C(C#N)(C#N)C(c2ccc(F)cc2)C=C1C1CC1 (stereo not given) ?
OUTPUT: 9.77 µM

INPUT: Which GI50 value is on record for OC1NC2Nc3ccccc3NC2NC1O (stereo not given) ?
OUTPUT: > 100 µM

INPUT: Which GI50 value is on record for O=C(NNCC(O)COc1ccccc1)c1ccccc1 (stereo not given) ?
OUTPUT: > 100 µM

INPUT: Which GI50 value is on record for O=[N+]([O-])C1=Cc2c(O)ccc(O)c2C2c3ccccc3NC12 (stereo not given) ?
OUTPUT: 13 µM

INPUT: Which GI50 value is on record for COC1CC2C=CC3C4OC2(/C(C)=C/C(C)C(C(C)O)OC1=O)C3C(O)C(C)C4OC(=O)c1ccc[nH]1 (stereo not given) ?
OUTPUT: 92.5 µM

INPUT: Which GI50 value is on record for C=C1C[C@@H]2O[C@H]3[C@H]4[C@@H](C[C@@H](C)[C@@H](OC(C)=O)[C@H]42)[C@@H](C)CO[C@@]3(C)[C@H](OC(=O)CCCCCCC)C[C@H]1O ?
OUTPUT: 15.8 µM

INPUT: Which GI50 value is on record for CC1=NN(c2nc(N)nc(CSc3cc(Cl)c(C)cc3S(N)(=O)=O)n2)C(C)(C)C1 ?
OUTPUT: > 10 µM

INPUT: Which GI50 value is on record for CNc1ccc(N)cc1C(=O)N1CCC[C@H]1CO ?
OUTPUT: > 100 µM

INPUT: Which GI50 value is on record for C[C@H](C(O)CC(=O)C(C)(C)O)[C@H]1CC[C@@]2(C)[C@@H]3CC[C@H]4C(C)(C)[C@@H](OC5OC(COC6OC(CO)C(O)C(O)C6O)C(O)C(O)C5O)CC[C@]4(C)C3=CC[C@]12C (stereo not given in full) ?
OUTPUT: > 100 µM

INPUT: Which GI50 value is on record for C[C@@H]1C[C@](O)([C@@H](C)Cl)C(=O)O[C@@H]2CCN3CC=C(COC(=O)[C@]1(C)O)[C@H]23 ?
OUTPUT: > 100 µM

INPUT: Which GI50 value is on record for O=C(CCCN1CCC2(CC1)CC(=O)N(N1CCOCC1)C2=O)c1ccccc1 ?
OUTPUT: > 100 µM

INPUT: Which GI50 value is on record for COc1cccc(-c2ccc3c4c2O[C@H]2c5[nH]c6ccccc6c5C[C@@]5(O)[C@@H](C3)N(CC3CC3)CC[C@]425)c1 ?
OUTPUT: 1.84 µM

INPUT: Which GI50 value is on record for CC1(C)OC2COC3(CNO)OC(C)(C)OC3C2O1 (stereo not given) ?
OUTPUT: > 100 µM

INPUT: Which GI50 value is on record for COc1cc2oc(-c3ccc4c(c3)OCO4)c(OC)c(=O)c2c(OC)c1OC ?
OUTPUT: > 100 µM

INPUT: Which GI50 value is on record for CC(=O)/N=S(/NC(=O)c1ccc(C)cc1)C(Cl)(Cl)Cl (stereo not given) ?
OUTPUT: 42.8 µM

INPUT: Which GI50 value is on record for O=C(CN(c1ccccc1)c1ccccc1)n1nnc2ccccc21 ?
OUTPUT: 39.7 µM

INPUT: Which GI50 value is on record for COc1ccc(/C=C2\CCC(C)c3c2nc(N)c(C#N)c3-c2ccc(OC)c(OC)c2)cc1OC (stereo not given) ?
OUTPUT: 5.71 µM

INPUT: Which GI50 value is on record for Cc1oc2c(cc(O)c3cc(O)ccc32)c2cccc1-2 ?
OUTPUT: > 100 µM

INPUT: Which GI50 value is on record for O=C1C/C(=C\c2ccccc2)C(=O)c2ccccc2N1 ?
OUTPUT: 24.7 µM
